Quick list: IC50 per entry.
Target: FLuc-C-HiBiT (Photinus pyralis, UniProt P08659)
Construct: firefly luciferase with C-terminal HiBiT tag, E. coli expressed
Sequence (P08659 whole entry, looked up): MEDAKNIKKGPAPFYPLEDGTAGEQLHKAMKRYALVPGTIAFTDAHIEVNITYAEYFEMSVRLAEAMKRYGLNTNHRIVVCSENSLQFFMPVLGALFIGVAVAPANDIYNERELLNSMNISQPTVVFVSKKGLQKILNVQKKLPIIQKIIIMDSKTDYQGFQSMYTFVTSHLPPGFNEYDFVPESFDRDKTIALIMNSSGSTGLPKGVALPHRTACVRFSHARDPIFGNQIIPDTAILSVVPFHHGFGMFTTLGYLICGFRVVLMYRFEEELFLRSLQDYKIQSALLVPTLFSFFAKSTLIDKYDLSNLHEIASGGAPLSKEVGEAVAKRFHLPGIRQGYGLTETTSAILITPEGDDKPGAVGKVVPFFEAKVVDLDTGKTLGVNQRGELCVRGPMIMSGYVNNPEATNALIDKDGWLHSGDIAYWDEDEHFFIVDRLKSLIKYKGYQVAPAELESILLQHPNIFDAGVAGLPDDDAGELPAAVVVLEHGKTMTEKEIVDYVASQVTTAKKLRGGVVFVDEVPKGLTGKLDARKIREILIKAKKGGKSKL
Test: biochemical
Settings: enzyme activity, 10 uM ATP; read-out: IC50 or SDR50 (mM) / FLuc E
Property: IC50 (mM)

[[record]]
molecule = "CCN(CC)[S+](=O)([O-])c1ccc2nc(NC(=O)c3cccnc3)sc2c1"
property = "IC50"
unit_of_measure = "mM"
readout_relation = "="
measured_value = 0.0124

[[record]]
molecule = "CCCc1ccc(OCc2ccc(C(=O)Nc3ccccc3C(=O)OC)o2)cc1"
property = "IC50"
unit_of_measure = "mM"
readout_relation = "="
measured_value = 0.0124

[[record]]
molecule = "COc1c(C)cccc1C(=O)Nc1ccc(-c2nc3ccccc3s2)c(Cl)c1"
property = "IC50"
unit_of_measure = "mM"
readout_relation = ">"
measured_value = 0.03

[[record]]
molecule = "Oc1ccc(-c2nc3ccccn3c2Nc2ccc3c(c2)OCCO3)cc1"
property = "IC50"
unit_of_measure = "mM"
readout_relation = "="
measured_value = 0.0176

[[record]]
molecule = "Cc1ccc(C)c(N2CCN(C(=O)C3CCN(c4nc(-c5ccc(C(C)C)cc5)no4)CC3)CC2)c1"
property = "IC50"
unit_of_measure = "mM"
readout_relation = "="
measured_value = 0.0111

[[record]]
molecule = "CC(CNC(=O)C1CCN(C(=O)c2ncn3c2COC(c2ccccc2)C3)CC1)c1ccccc1 (stereo not shown)"
property = "IC50"
unit_of_measure = "mM"
readout_relation = "="
measured_value = 0.00248

[[record]]
molecule = "COc1ccc(CNC(=O)C[C@@H]2C[C@@H](C(C)C)[C@H](CNC(=O)c3cccnc3)C=C2C)cc1"
property = "IC50"
unit_of_measure = "mM"
readout_relation = ">"
measured_value = 0.03


---

Target: FLuc-C-HiBiT (Photinus pyralis, UniProt P08659)
Construct: firefly luciferase with C-terminal HiBiT tag, E. coli expressed
Assay: biochemical
Conditions: enzyme activity, 10 uM ATP; read-out: IC50 or SDR50 (mM) / FLuc E
Property: IC50 (µM)

[[record]]
compound = "C=CCNC(=O)c1cccc2c(C)nnn12"
readout_relation = ">"
measured_value = 30

[[record]]
compound = "Cc1cc(F)ccc1OC1(C(=O)O)CCN(c2ncnc3[nH]cnc23)CC1"
readout_relation = ">"
measured_value = 30

[[record]]
compound = "CCCCC(=O)Nc1cc(-c2nc3ccccc3s2)ccc1C"
readout_relation = ">"
measured_value = 30

[[record]]
compound = "Cc1noc(C)c1CC(=O)N1CCOc2c(cc(-c3nc4ccccc4s3)cc2OC2CCOC2)C1 (stereo not shown)"
readout_relation = ">"
measured_value = 30

[[record]]
compound = "Cc1ccc(NCc2nc3ccccc3n2CCOc2ccccc2)cc1"
readout_relation = "="
measured_value = 11.1

[[record]]
compound = "CCCc1noc(-c2nc(-c3ccccc3F)no2)n1"
readout_relation = "="
measured_value = 9.89

[[record]]
compound = "COc1ccc(-c2nc(-c3cccc(C(=O)O)c3)no2)cc1"
readout_relation = "="
measured_value = 0.00248


---

Biological target: FLuc-C-HiBiT (firefly luciferase) (Photinus pyralis, UniProt P08659, form not given/L550V)
Sequence (P08659 2-550 L550V, form open): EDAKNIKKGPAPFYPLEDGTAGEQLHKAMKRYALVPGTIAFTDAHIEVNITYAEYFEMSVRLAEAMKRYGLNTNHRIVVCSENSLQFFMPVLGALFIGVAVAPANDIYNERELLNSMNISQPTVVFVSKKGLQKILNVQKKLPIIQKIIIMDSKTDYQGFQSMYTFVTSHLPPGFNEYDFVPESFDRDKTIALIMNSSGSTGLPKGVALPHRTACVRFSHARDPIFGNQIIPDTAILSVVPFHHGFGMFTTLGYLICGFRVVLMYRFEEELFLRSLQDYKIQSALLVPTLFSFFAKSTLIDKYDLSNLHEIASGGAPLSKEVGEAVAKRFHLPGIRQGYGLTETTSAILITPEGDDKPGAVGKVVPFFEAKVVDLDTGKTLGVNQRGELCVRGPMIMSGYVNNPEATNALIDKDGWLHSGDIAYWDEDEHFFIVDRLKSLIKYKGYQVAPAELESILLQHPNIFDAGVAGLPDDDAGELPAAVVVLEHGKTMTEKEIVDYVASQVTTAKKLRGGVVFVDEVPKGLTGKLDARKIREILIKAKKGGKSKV
Test: SDR assay, FLuc-C-HiBiT
Conditions: 10 nM FLuc-C-HiBiT; normalized activity; Log [Compound], M -8.78
Property: SDR + 10 mM ATP

[[record]]
molecule = "O=C(O)c1cccc2c1CCN2C(=O)Nc1ccc(F)cc1 [compound 00432687]"
property = "SDR + 10 mM ATP"
measured_value = 31.3

[[record]]
molecule = "CC(CNC(=O)C1CCN(C(=O)c2ncn3c2COC(c2ccccc2)C3)CC1)c1ccccc1 (centres unmarked) [compound 00449795]"
property = "SDR + 10 mM ATP"
measured_value = 7.1

[[record]]
molecule = "Cc1ccc(-n2ncc3c(N4CCCCCC4)ncnc32)cc1 [compound 00139018]"
property = "SDR + 10 mM ATP"
measured_value = 8.6

[[record]]
molecule = "CNC(=O)c1cccc2c1CCN2C(=O)Nc1ccc(C)cc1 [compound 00430160]"
property = "SDR + 10 mM ATP"
measured_value = 7.6

[[record]]
molecule = "COc1ccc(-c2nc(-c3ccc(C(=O)O)cc3)no2)cc1 [compound 00168104]"
property = "SDR + 10 mM ATP"
measured_value = 8.1


---

Biological target: ABL1-N-HiBiT kinase domain (Homo sapiens, UniProt P00519)
Sequence (P00519 233-500): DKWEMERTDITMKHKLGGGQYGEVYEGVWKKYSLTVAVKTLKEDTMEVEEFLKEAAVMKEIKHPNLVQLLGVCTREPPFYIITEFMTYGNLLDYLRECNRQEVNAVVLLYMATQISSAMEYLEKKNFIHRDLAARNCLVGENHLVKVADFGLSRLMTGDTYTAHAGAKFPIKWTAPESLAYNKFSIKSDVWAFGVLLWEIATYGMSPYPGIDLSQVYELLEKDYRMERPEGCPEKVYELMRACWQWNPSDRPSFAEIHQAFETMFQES
Experiment: SDR assay, ABL1-N-HiBiT
Details: read-out: SDR Ave SDR50; ABL1-N-HiBiT qHTS; average; unit inferred
pEC50: −log10 of the molar value. Where a name gives a salt, the structure may show the parent alone.
Property: pEC50

[[record]]
compound = "COc1cc2ncnc(-n3nc(-c4ccccn4)nc3N)c2cc1OC"
measured_value = 7.01

[[record]]
compound = "C[C@@H](NC(=O)c1ncnc(N)c1Cl)c1ncc(C(=O)Nc2cc(C(F)(F)F)c(Cl)cn2)s1"
measured_value = 6.54

[[record]]
compound = "O=C(Nc1ccc(OC(F)(F)F)cc1)c1sccc1NCc1ccnc2ccccc12"
measured_value = 5.03

[[record]]
compound = "Nc1nc(NCCNc2ncc(-n3ccnc3)c(-c3ccc(Cl)cc3Cl)n2)ccc1[N+](=O)[O-]"
measured_value = 4.47

[[record]]
compound = "Cc1ccc(NC(=O)N2CCN(c3nc(N)nc4sc(-c5cccnc5)nc34)CC2)cc1"
measured_value = 4.83

[[record]]
compound = "Cc1nc2ccc(-n3ncc(C(=O)c4cc5ccccc5[nH]4)c3N)cc2[nH]1"
measured_value = 5.60

[[record]]
compound = "Cc1ccccc1-n1c([C@H](C)Nc2nc(N)nc3[nH]cnc23)nc2cccc(C)c2c1=O [CAL-130 Hydrochloride]"
measured_value = 5.39

[[record]]
compound = "COc1cc2nccc(Oc3ccc(NC(=O)Nc4ccc(F)cc4F)c(F)c3)c2cc1OC"
measured_value = 6.18

[[record]]
compound = "Cc1n[nH]c2ccc(-c3cncc(OC[C@@H](N)Cc4c[nH]c5ccccc45)c3)cc12"
measured_value = 5.25

[[record]]
compound = "O=C(O)[C@]1(Cc2cccc(Nc3nccs3)n2)CC[C@@H](Oc2cccc(Cl)c2F)CC1"
measured_value = 6.90

[[record]]
compound = "CC[C@@](C)(Nc1ccnc(-c2c[nH]c3ncccc23)n1)C(=O)NCC(F)(F)F"
measured_value = 5.63

[[record]]
compound = "c1ccc(-c2oc3ncnc(NC[C@@H]4CCCO4)c3c2-c2ccccc2)cc1"
measured_value = 5.00

[[record]]
compound = "Cc1nc(NC(=O)N2CCC[C@H]2C(N)=O)sc1-c1ccnc(C(C)(C)C(F)(F)F)c1"
measured_value = 5.67

[[record]]
compound = "O=c1c(O)c(-c2ccc(O)c(O)c2)oc2cc(O)cc(O)c12"
measured_value = 5.04

[[record]]
compound = "O=C(c1cccc(Cl)c1F)N1CCN(Cc2cccc(Nc3nccs3)n2)CC1"
measured_value = 5.24

[[record]]
compound = "C=CC(=O)N1CCC[C@@H](n2nc(-c3cccc(C(=O)Nc4ccc(C(C)C)c(C)c4)c3)c3c(N)ncnc32)C1"
measured_value = 5.04

[[record]]
compound = "COc1cc2ncnc(Oc3cccc(NC(=O)Nc4cc(C(C)(C)C(F)(F)F)on4)c3)c2cc1OC"
measured_value = 6.76

[[record]]
compound = "CN1CCN(CCCNc2ncc(Cl)c(-c3cc4c(C(=O)NC5CC5)cccc4s3)n2)CC1"
measured_value = 5.10

[[record]]
compound = "CN1CCN(Cc2ccc(-c3cnc4[nH]cc(-c5ccc6[nH]ccc6c5)c4c3)cc2)CC1"
measured_value = 6.39

[[record]]
compound = "N#Cc1cn([C@@H]2O[C@H](CO)[C@@H](O)[C@H]2O)c2ncnc(N)c12"
measured_value = 4.89

[[record]]
compound = "COc1ccccc1-c1c[nH]c2ncc(-c3cncc(C(=O)N(C)C)c3)cc12"
measured_value = 8.52

[[record]]
compound = "c1ccc2c(-c3cnn4cc(-c5ccc(N6CCNCC6)cc5)cnc34)ccnc2c1"
measured_value = 6.83

[[record]]
compound = "C/C(O)=C(\\C#N)C(=O)Nc1cc(Br)ccc1Br"
measured_value = 5.43

[[record]]
compound = "CCn1c(=O)c(-c2ccc(Cl)cc2Cl)cc2cnc(Nc3ccc(N4CCNCC4)c(F)c3)nc21"
measured_value = 8.30


---

Target: P. pyralis FLuc (Photinus pyralis)
Sequence (P08659 whole entry): as the sequence (P08659 whole entry, looked up) above
Test: FLuc enzymatic luminescence assay, P. pyralis FLuc
Assay type: biochemical
Conditions: FLuc enzymatic assay; Clade S follow-up
Tick label 1 if Efficacy (%) FLuc E is -70% or greater. Tick label 0 if Efficacy (%) FLuc E is less than -70%.

[[record]]
compound = "O=C(NCCC1=CCCCC1)C1CCN(C(=O)c2ncn3c2COC(c2ccccc2)C3)CC1 (centres unmarked)"
measured_on = "P. pyralis FLuc (Photinus pyralis)"
discrete_label = "label 0"

[[record]]
compound = "CC(C)c1ccc(NC(=O)C2CCN(C(=O)c3ncn4c3COC(c3ccc(F)cc3)C4)CC2)cc1 (centres unmarked)"
measured_on = "P. pyralis FLuc (Photinus pyralis)"
discrete_label = "label 1"

[[record]]
compound = "O=C(NCc1ccccc1)C1CCN(C(=O)c2ncn3c2COC(c2ccc(Cl)cc2)C3)CC1 (centres unmarked)"
measured_on = "P. pyralis FLuc (Photinus pyralis)"
discrete_label = "label 1"

[[record]]
compound = "CCOc1ccc(NC(=O)C2CCN(C(=O)c3ncn4c3COC(c3ccccc3)C4)CC2)cc1 (centres unmarked)"
measured_on = "P. pyralis FLuc (Photinus pyralis)"
discrete_label = "label 0"

[[record]]
compound = "COCCNC(=O)C1CCN(C(=O)c2ncn3c2COC(c2ccc(F)cc2)C3)CC1 (centres unmarked)"
measured_on = "P. pyralis FLuc (Photinus pyralis)"
discrete_label = "label 1"

[[record]]
compound = "O=C(NC1CCCCCC1)C1CCN(C(=O)c2ncn3c2COC(c2ccccc2)C3)CC1 (centres unmarked)"
measured_on = "P. pyralis FLuc (Photinus pyralis)"
discrete_label = "label 0"

[[record]]
compound = "O=C(NCc1ccccc1Cl)C1CCN(C(=O)c2ncn3c2COC(c2ccccc2)C3)CC1 (centres unmarked)"
measured_on = "P. pyralis FLuc (Photinus pyralis)"
discrete_label = "label 0"

[[record]]
compound = "O=C(NC1CCCCCCC1)C1CCN(C(=O)c2ncn3c2COC(c2ccc(Cl)cc2)C3)CC1 (centres unmarked)"
measured_on = "P. pyralis FLuc (Photinus pyralis)"
discrete_label = "label 1"

[[record]]
compound = "Cc1ccc(CNC(=O)C2CCN(C(=O)c3ncn4c3COC(c3ccccc3)C4)CC2)cc1 (centres unmarked)"
measured_on = "P. pyralis FLuc (Photinus pyralis)"
discrete_label = "label 0"

[[record]]
compound = "O=C(NCC1CCCCC1)C1CCN(C(=O)c2ncn3c2COC(c2ccc(F)cc2)C3)CC1 (centres unmarked)"
measured_on = "P. pyralis FLuc (Photinus pyralis)"
discrete_label = "label 1"

[[record]]
compound = "O=C(NCc1ccccc1F)C1CCN(C(=O)c2ncn3c2COC(c2ccc(Cl)cc2)C3)CC1 (centres unmarked)"
measured_on = "P. pyralis FLuc (Photinus pyralis)"
discrete_label = "label 1"

[[record]]
compound = "O=C(NCc1ccc(F)c(Cl)c1)C1CCN(C(=O)c2ncn3c2COC(c2ccccc2)C3)CC1 (centres unmarked)"
measured_on = "P. pyralis FLuc (Photinus pyralis)"
discrete_label = "label 0"

[[record]]
compound = "O=C(NCc1ccccc1)C1CCN(C(=O)c2ncn3c2COC(c2ccccc2)C3)CC1 (centres unmarked)"
measured_on = "P. pyralis FLuc (Photinus pyralis)"
discrete_label = "label 0"

[[record]]
compound = "COc1ccc(NC(=O)C2CCN(C(=O)c3ncn4c3COC(c3ccccc3)C4)CC2)cc1OC (centres unmarked)"
measured_on = "P. pyralis FLuc (Photinus pyralis)"
discrete_label = "label 0"

[[record]]
compound = "O=C(NCC1CCCCC1)C1CCN(C(=O)c2ncn3c2COC(c2ccc(Cl)cc2)C3)CC1 (centres unmarked)"
measured_on = "P. pyralis FLuc (Photinus pyralis)"
discrete_label = "label 1"

[[record]]
compound = "Cc1ccc(C2Cn3cnc(C(=O)N4CCC(C(=O)NCCC5=CCCCC5)CC4)c3CO2)cc1 (centres unmarked)"
measured_on = "P. pyralis FLuc (Photinus pyralis)"
discrete_label = "label 1"

[[record]]
compound = "O=C(NCc1ccc(F)cc1)C1CCN(C(=O)c2ncn3c2COC(c2ccccc2)C3)CC1 (centres unmarked)"
measured_on = "P. pyralis FLuc (Photinus pyralis)"
discrete_label = "label 0"

[[record]]
compound = "O=C(NCc1ccc(Cl)cc1)C1CCN(C(=O)c2ncn3c2COC(c2ccccc2)C3)CC1 (centres unmarked)"
measured_on = "P. pyralis FLuc (Photinus pyralis)"
discrete_label = "label 0"

[[record]]
compound = "O=C(NCC1CCCO1)C1CCN(C(=O)c2ncn3c2COC(c2ccc(F)cc2)C3)CC1 (centres unmarked)"
measured_on = "P. pyralis FLuc (Photinus pyralis)"
discrete_label = "label 1"

[[record]]
compound = "CC(NC(=O)C1CCN(C(=O)c2ncn3c2COC(c2ccccc2)C3)CC1)c1ccc(F)cc1 (centres unmarked)"
measured_on = "P. pyralis FLuc (Photinus pyralis)"
discrete_label = "label 0"

[[record]]
compound = "O=C(Nc1ccc(F)c(F)c1)C1CCN(C(=O)c2ncn3c2COC(c2ccc(F)cc2)C3)CC1 (centres unmarked)"
measured_on = "P. pyralis FLuc (Photinus pyralis)"
discrete_label = "label 0"

[[record]]
compound = "O=C(NCc1ccc2c(c1)OCO2)C1CCN(C(=O)c2ncn3c2COC(c2ccccc2)C3)CC1 (centres unmarked)"
measured_on = "P. pyralis FLuc (Photinus pyralis)"
discrete_label = "label 0"

